# Tested on: LAD2 mast cell line
# protocol-text: β-hexosaminidase release assay: inhibition of Compound 48/80-evoked mast cell degranulation
# Assay type: cell-based, human
# setup-conditions: Homo sapiens, light or radiation study; LAD2 cells, degranulation evoked by 1.0 µM Compound 48/80, non-irradiated inhibitors, 30 min pre-incubation, n=3
measurement-type: IC50 (µM)

{"smiles-structure": "O=C([O-])c1cc(=O)c2c(OCc3ccc(/N=N/c4ccc(COc5cccc6oc(C(=O)[O-])cc(=O)c56)cc4)cc3)cccc2o1.[Na+].[Na+]", "IC50 (µM)": 28}

I: O=C([O-])c1cc(=O)c2cc(/N=N/c3ccc4oc(C(=O)[O-])cc(=O)c4c3)ccc2o1.[Na+].[Na+]
II: O=C([O-])c1cc(=O)c2c(OCc3cccc(/N=N/c4cccc(COc5cccc6oc(C(=O)[O-])cc(=O)c56)c4)c3)cccc2o1.[Na+].[Na+]
Compare IC50: is it lower for I or for II ? Output the label that corresponds to your choice.
II
(II: 10 µM, I: 272 µM)
